- TEST PROTOCOL: Accelerated stability screening monitored by SEC
- Format: physicochemical
- ASSAY CONDITIONS: SEC, 7 days storage at 50° C.
ENDPOINT: Fragment (%)
One number for each entry, in %.

Hu2B5.9: humanized 2B5-8.0; VH SEQ ID NO 76, VL SEQ ID NO 77 (antibody, V domains shown) VH: EVQLVQSGAEVKKPGASVKVSCKASGYTFTKYWLGWVRQAPGQGLEWMGDIYPGYDYTHYNEKFKDRVTMTTDTSTSTAYMELRSLRSDDTAVYYCARSDGSSTYWGQGTLVTVSS VL: DIVMTQTPLSLPVTPGEPASISCTSSQNIVHSNGNTYLEWYLQKPGQSPQLLIYKVSNRFSGVPDRFSGSGSGTDFTLKISRVEAEDVGVYYCFQVSHVPYTFGGGTKVEIKR yielded Fragment (%) of 3.4127
